- System: CAF#3 (primary prostate cancer-associated fibroblasts of myCAF-like type)
- assayInfo: drug sensitivity score (DSS2, normalised partial AUC of dose-response, 72 h CellTiter-Glo viability) (DSS (dimensionless)); higher = more sensitive (stronger growth inhibition / cytotoxicity); extreme values may be limits of the assay
Entries and their drug sensitivity score values follow.

[
  {
    "molecule": "COc1cc2nccc(Oc3ccc(NC(=O)Nc4cc(C)on4)c(Cl)c3)c2cc1OC [Tivozanib] (tested concentration range 1-10000 nM)",
    "drug sensitivity score": 6
  },
  {
    "molecule": "NC(=S)N/N=C/c1ncccc1N [Triapine] (tested concentration range 1-10000 nM)",
    "drug sensitivity score": 0.6
  },
  {
    "molecule": "CC#CC(=O)N1CCC[C@H]1c1nc(-c2ccc(C(=O)Nc3ccccn3)cc2)c2c(N)nccn12 [Acalabrutinib] (tested concentration range 0.1-1000 nM)",
    "drug sensitivity score": 0
  }
]
